The measurements presented in this section are drawn from PubChem BioAssay AID179.

# Test system: CEM cells HIV-1 protection, formazan growth assay
# assay_info: NCI AIDS Antiviral Assay
# measurement_setup: measured here: growth of uninfected CEM cells
experimental_endpoint: pIC50
Entry type: numeric. Quantity: pIC50, the -log10 of concentration in molar units.

The following compounds have reported results that may help.
Cc1[nH]c(-c2ccccc2)c(O)c1C(=O)OC1CC(C)CCC1C(C)C (centres undefined)	4.63
COC1N(C2C=CC(CO)O2)C(=O)NC(=O)C1(C)I (centres undefined)	5.11
CCOC(=O)/C=C(/OCC)[C@@H]1C(C(=O)c2ccc(Cl)cc2)[C@@H]1/C(=C\C(=O)OCC)OCC (some centres undefined)	5.23
CCOC(=O)c1c(-c2ccccc2)c(C)cn1C	3.92

Now look at this entry.
Quick note, pIC50 for O=NNc1ccc(S(=O)(=O)c2ccc3ccccc3c2)cn1 landed at 3.95

###

# System: CEM cells HIV-1 protection, formazan growth assay
# assay_info: NCI AIDS Antiviral Assay;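 active means compounds giving half or more protection of infected cells from virus-caused growth loss, again on retest; inactive means the rest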
Hello, when you answer, please use one of the following outcomes: active, inactive

CC(=O)ON1C(c2ccc([N+](=O)[O-])cc2)OCC2OC(n3cc(C)c(=O)[nH]c3=O)C[C@H]21 (stereo not given in full)	inactive
O=C1CC2(CCC(O)(c3ccco3)C(C(=O)c3ccco3)C2)C(=O)c2ccccc2N1 (stereo not given)	inactive
O=[N+]([O-])c1cc[n+]([O-])cc1	inactive
O=S1(=O)OCCOS(=O)(=O)C1I	inactive
N#CCCN(CCC#N)c1ccc(/C=C2\N=C(c3cc([N+](=O)[O-])ccc3Cl)N(S(=O)(=O)c3ccccc3)C2=O)cc1	inactive
C=CCc1cc(-c2cc(CC=C)c(O)c(CN(CC)CC)c2)cc(CN(CC)CC)c1O	inactive

Lookup: Query: recorded result category for O=S(O)Cc1ccccc1CSSSCc1ccccc1CS(=O)O in this test
Found: inactive

Lookup: Per the assay record, what outcome was assigned to CCN(CC)CCCC(C)Nc1cc(-c2ccccc2)nc2ccccc12 (stereo not given) ?
Found: inactive

Lookup: Could you kindly confirm the outcome this assay logged for Cc1ccccc1NC(=O)Cc1csc(N=Nc2c(O)[nH]c3ccccc23)n1 ?
Found: inactive

Lookup: GET /call?item= O=C(/C=C/c1ccc(O)cc1)c1ccc2c(c1)OCO2 returns the recorded outcome of this test.
Found: inactive

###

// reported pEC50 for each item listed
# System: CEM cells HIV-1 protection, formazan growth assay
# assay_info: NCI AIDS Antiviral Assay
pEC50: −log10 of the molar value.

COC(OC)[C@@H]1OC[C@H](n2ccc(=O)[nH]c2=O)[C@H]1O	< 3.70
COc1ccc(C(O)/C(=N/N)c2nc3ccc(Cl)cc3[nH]c2=O)cc1 (centres undefined)	< 3.58

For record CCOC(=O)/C(C(=S)Nc1ccccc1)=C(/N)N1CCCC1 the listed pEC50 is < 3.70

###

# Test system: CEM cells HIV-1 protection, formazan growth assay
# assay_info: NCI AIDS Antiviral Assay
# measurement_setup: measured here: growth of uninfected CEM cells
experimental_endpoint: pIC50
Recall that pIC50 is obtained by taking minus log10 of the concentration measured in molar.

Examples with answers:
O=C(O)c1ccccc1SCc1cc(O)ccc1O	4.51
CC(C)CCCC(C)[C@H]1CC[C@H]2[C@@H]3CC[C@H]4C[C@@H](CCC=C(c5cc(Cl)c(OCc6ccc(B(O)O)cc6)c(C(=O)O)c5)c5cc(Cl)c(OCc6ccc(B(O)O)cc6)c(C(=O)O)c5)CC[C@]4(C)[C@H]3CC[C@]12C (stereo not given in full)	4.03
O=S(=O)(Nc1nnc2c3ccccc3ccn12)c1ccc(F)cc1S	3.60

So, Cc1c(C)c2ccc(O)cc2[nH]c1=O ? Its pIC50 was 3.74

###

Reported EC50 values for a set of molecules
# Tested on: CEM cells HIV-1 protection, formazan growth assay
# assay_info: NCI AIDS Antiviral Assay
# Method: The ability of compounds to protect human CEM cells from HIV-1 infection is measured as a screen for new compounds capable of inhibiting the HIV virus. Five concentrations of drug were tested on uninfected and infected cells and cell growth was measured using a soluble formazan assay. […] Compounds that provided at least 50% protection were retested. Compounds that provided at least 50% protection on retest were listed as moderately active. […]

Consider the worked cases shown below.
O=C1N[C@@H](O)[C@@H]2ON=C(c3ccccc3)[C@H]12	> 1150 µM
CC(=O)Nc1cccc2cc(S(=O)(=O)O)ccc12	> 200 µM
Cc1ccc2c(c1)CC1(Cc3cccc(C)c3C1=O)C2=O (stereo unspecified)	> 200 µM
Cn1c2c(c3ccccc31)CCN(CCCCN1CCCCC1)C2=O	> 372 µM
C[C@@H]1OCN(C(=O)c2ccccc2SSc2ccccc2C(=O)N2CO[C@H](C)[C@H]2C(=O)O)[C@H]1C(=O)O	> 200 µM
O=C(O)CC(Cc1ccc2c(c1)OCO2)C(=O)O (stereo unspecified)	> 200 µM
O=NN1C(c2ccccc2)CC(=NO)CC1c1ccccc1 (stereo unspecified)	> 200 µM
c1ccc2c(c1)NC1=C(CSCC1)c1nncn1-2	> 200 µM

Record summary for CC(=O)OC1c2ccccc2C2c3ccccc3C1C2(C)C(Cl)(Cl)Cl (stereo unspecified) : reported EC50 = > 13.2 µM

For this molecule ( Nc1[nH][nH]c(=O)c1N=O ), measured EC50 is > 200 µM

Entry under test: O=c1n(-c2ccccc2)c(=O)n2n1C1CC3c4ccccc4C1C32 (stereo unspecified) . Its EC50 was > 22.9 µM

###

# System: CEM cells HIV-1 protection, formazan growth assay
# assay_info: NCI AIDS Antiviral Assay
pEC50: −log10 of the molar value.
experimental_endpoint: pEC50

O=C(c1ccc([N+](=O)[O-])cc1)N1CCCC1	< 3.70

Item: COc1ncnc2c1ncn2C1OC(CO)(C(F)(F)F)C(O)C1O (configuration not stated) | System: CEM cells HIV-1 protection, formazan growth assay | pEC50: < 3.70

The reported CEM cells HIV-1 protection, formazan growth assay pEC50 of Cc1cc(NS(=O)(=O)c2ccc(Nc3c4ccccc4nc4c(C(=O)NCCO)cccc34)cc2)no1 is < 3.70

Entry CCSCCCSCCSCC : pEC50 on CEM cells HIV-1 protection, formazan growth assay = < 3.80

Simply: O=C1c2c(O)cccc2Cc2cc(CO)cc(O)c21 , CEM cells HIV-1 protection, formazan growth assay, pEC50 = < 3.70

###

# System: CEM cells HIV-1 protection, formazan growth assay
# assay_info: NCI AIDS Antiviral Assay
# measurement_setup: measured here: growth of uninfected CEM cells
Recorded pIC50, one value per entry.
// pIC50: -log10(molar conc.)

Example cases with answers are listed next.
O=C(O)c1c2c(cc3c(=O)c4ccccc4[nH]c13)CCCC2	4.07
O=C1c2cccc3cc([N+](=O)[O-])cc(c23)C(=O)N1CCCN1CCN(CCCNc2ccc3ncn4c5ccccc5c(=O)c2c34)CC1	8.31
NC(=O)c1ccc(NC(=O)c2ccccc2SC(=O)CCCC[n+]2ccccc2)cc1	4.80

pIC50 reading for CC(O)(C(=O)N(O)c1ccc(Cl)cc1)c1ccc(Cl)cc1 (stereo not given) : 4.75

###

# Tested on: CEM cells HIV-1 protection, formazan growth assay
# assay_info: NCI AIDS Antiviral Assay
# measurement_setup: measured here: growth of uninfected CEM cells
experimental_endpoint: IC50 (µM)
Quick note: give the figure in µM, leave out the unit.

Example entries begin here.
Cl/C=C\C[N+]12CN3CN(CN(C3)C1)C2	93.3
CC(C)(C)OC(=O)NCCc1cccc2c1oc1c(CCC(=O)O)cccc12	110
C=C1CN(S(=O)(=O)c2ccc(C)cc2)CCCN(C(=O)OC)CCCN(S(=O)(=O)c2ccc(C)cc2)C1	107

In plain terms, COc1ccc(-c2c(C(C)=O)c(-c3ccccc3)n(C3OC(COC(C)=O)C(OC(C)=O)C(OC(C)=O)C3OC(C)=O)c(=S)c2C#N)cc1 (centres undefined) has a documented IC50 of 123

The recorded IC50 for C[N+]1(C)CN(c2ccccc2)C2(CCN(CCCC(=O)c3cccs3)CC2)C1=O is 55

// recorded IC50 for CC(=O)N=C1N(/C=C2\C(=O)Oc3ccccc3C2=O)C(=O)/C(=C/c2ccco2)N1C : 69.2

The recorded IC50 for entry COc1ccc(/C=C/c2ccnc3ccccc23)cc1OC equals 50.1

Reported IC50 of COc1ccc(CSCc2cc(OC)c(OC)c(OC)c2)cc1 : 25.7

###

# Tested on: CEM cells HIV-1 protection, formazan growth assay
# assay_info: NCI AIDS Antiviral Assay
# measurement_setup: measured here: growth of uninfected CEM cells
# Method: The ability of compounds to protect human CEM cells from HIV-1 infection is measured as a screen for new compounds capable of inhibiting the HIV virus. Five concentrations of drug were tested on uninfected and infected cells and cell growth was measured using a soluble formazan assay. […] Compounds that provided at least 50% protection were retested. Compounds that provided at least 50% protection on retest were listed as moderately active. […]
Measured pIC50 of individual entries
Note on units: pIC50 is unitless, being -log10 of a concentration expressed in mol/L.

COc1ccccc1NC(=O)C1=C(C)NC(C)=C(C(=O)Nc2ccccc2OC)C1c1ccc(N(C)C)cc1	4.53

The recorded pIC50 for CCCCCCCCCCCCCCCCSS(C)(=O)=O is 5.16

GET /value?item= Cc1nnc(N)nc1/C=C\c1ccc(Cl)cc1Cl &field=pIC50 returns 4.30

pIC50 for Cc1ccc([P+](Cc2ccc([N+](=O)[O-])cc2)(c2ccc(C)cc2)c2ccc(C)cc2)cc1 is 5.44

What the record says about COc1ccc(C2=CC(C(C)=C(C(N)=O)C(N)=O)C=C(c3ccc(Br)cc3)C2)c(OC)c1 (stereo not given) : pIC50 is 4.12
